Target: Porcine ventricle myofibrils (ventricular myosin ATPase) (Sus scrofa, UniProt P79293)
Construct: Myofibrils from porcine cardiac muscle was isolated from the left ventricle of Yucatan minipigs; tissue Exemplar Genetics; host or cells: left ventricle of Yucatan minipigs, myofibrils prepared in house
Sequence (P79293 whole entry): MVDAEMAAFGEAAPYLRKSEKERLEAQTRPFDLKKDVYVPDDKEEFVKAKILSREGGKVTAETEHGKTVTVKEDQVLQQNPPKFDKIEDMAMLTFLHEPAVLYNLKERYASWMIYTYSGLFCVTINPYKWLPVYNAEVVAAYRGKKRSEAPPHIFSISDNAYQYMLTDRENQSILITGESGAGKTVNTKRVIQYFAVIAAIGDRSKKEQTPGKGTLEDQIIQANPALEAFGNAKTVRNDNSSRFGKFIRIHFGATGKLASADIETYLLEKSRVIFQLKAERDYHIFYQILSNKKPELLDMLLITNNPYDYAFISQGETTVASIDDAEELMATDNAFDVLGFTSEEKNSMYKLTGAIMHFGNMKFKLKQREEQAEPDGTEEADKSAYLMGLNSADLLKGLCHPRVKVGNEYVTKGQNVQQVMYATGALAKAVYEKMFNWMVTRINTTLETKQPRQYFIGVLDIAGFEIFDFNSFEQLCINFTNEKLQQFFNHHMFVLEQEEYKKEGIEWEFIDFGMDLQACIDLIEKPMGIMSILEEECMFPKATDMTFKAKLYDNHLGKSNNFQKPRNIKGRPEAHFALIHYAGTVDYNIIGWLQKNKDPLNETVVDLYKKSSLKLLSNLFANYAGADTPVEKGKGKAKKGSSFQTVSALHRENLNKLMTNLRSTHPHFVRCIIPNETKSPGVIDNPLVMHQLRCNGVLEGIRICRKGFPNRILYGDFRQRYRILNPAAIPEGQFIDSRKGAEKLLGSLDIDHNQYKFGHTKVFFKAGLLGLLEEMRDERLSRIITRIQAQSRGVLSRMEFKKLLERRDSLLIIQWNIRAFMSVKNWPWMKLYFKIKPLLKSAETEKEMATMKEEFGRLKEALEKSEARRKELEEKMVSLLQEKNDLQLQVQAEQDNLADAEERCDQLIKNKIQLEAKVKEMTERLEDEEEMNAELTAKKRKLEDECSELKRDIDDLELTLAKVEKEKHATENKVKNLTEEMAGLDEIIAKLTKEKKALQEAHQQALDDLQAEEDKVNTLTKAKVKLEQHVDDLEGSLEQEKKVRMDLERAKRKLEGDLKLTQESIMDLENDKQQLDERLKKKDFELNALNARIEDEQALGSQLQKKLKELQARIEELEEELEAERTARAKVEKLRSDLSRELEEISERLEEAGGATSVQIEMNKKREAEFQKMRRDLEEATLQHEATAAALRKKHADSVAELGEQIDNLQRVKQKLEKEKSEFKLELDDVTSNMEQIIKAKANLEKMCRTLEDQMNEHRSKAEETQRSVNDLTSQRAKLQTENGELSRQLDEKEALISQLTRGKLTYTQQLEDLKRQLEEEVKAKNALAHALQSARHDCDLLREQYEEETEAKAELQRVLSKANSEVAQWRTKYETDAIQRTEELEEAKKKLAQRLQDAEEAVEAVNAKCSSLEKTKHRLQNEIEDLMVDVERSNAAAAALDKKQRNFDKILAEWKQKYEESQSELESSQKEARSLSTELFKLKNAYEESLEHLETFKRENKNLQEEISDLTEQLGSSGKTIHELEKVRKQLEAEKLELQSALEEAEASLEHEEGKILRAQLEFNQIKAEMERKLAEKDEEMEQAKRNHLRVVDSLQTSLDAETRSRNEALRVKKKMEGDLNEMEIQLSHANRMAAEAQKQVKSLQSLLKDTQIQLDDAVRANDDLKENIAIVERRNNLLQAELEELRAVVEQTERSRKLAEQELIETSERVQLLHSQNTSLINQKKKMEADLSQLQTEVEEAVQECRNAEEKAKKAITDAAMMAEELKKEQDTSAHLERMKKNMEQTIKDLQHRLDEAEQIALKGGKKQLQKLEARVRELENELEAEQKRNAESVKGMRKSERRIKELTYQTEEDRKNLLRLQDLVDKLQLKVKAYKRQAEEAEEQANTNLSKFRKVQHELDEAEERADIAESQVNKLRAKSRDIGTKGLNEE
Assay: Myofibril ATPase assay, porcine ventricle myofibrils
Format: biochemical, porcine (Yucatan minipigs)
Conditions: Y75 value (no ‡ mark); porcine ventricle myofibrils
Protocol: Example 1. Myofibril ATPase Assay Myofibril ATPase assays are known in the art to be useful in evaluating small molecules for the treatment of HCM and other cardiac indications. Myosin ATPase activity is assessed by using a coupled reaction system, in which ADP generated by the myosin ATPase function is coupled to the disappearance of NADH through the pyruvate kinase/lactate dehydrogenase (PK-LDH) system. […]
Catalogue of compounds with associated Ventricular EC25

Take a look at these entries with their results.
Compound	Target Or System	Ventricular EC25
Cc1c(O)ccc2[nH]c(=O)c(CC(=O)N[C@H](C)c3ncc(F)cc3F)cc12 (single isomer, unassigned) [compound 77]	Porcine ventricle myofibrils (ventricular myosin ATPase) (Sus scrofa, UniProt P79293)	100.00 µM
Cc1nc(C#N)cnc1[C@@H](C)NC(=O)C(F)(F)c1c(C)c2cc(F)ccc2[nH]c1=O (single isomer, unassigned) [compound 2567]	Porcine ventricle myofibrils (ventricular myosin ATPase) (Sus scrofa, UniProt P79293)	1.07 µM
Cc1c(C(F)(F)C(=O)N[C@@H](C)c2cnc(C#N)cn2)c(=O)[nH]c2ccc(F)cc12 (single isomer, unassigned) [compound 4828]	Porcine ventricle myofibrils (ventricular myosin ATPase) (Sus scrofa, UniProt P79293)	1.13 µM

Now look at this entry.
Entry Cc1c(F)ccc2[nH]c(=O)c(C(F)(F)C(=O)N[C@@H](C)c3ncc(C#N)cn3)c(C#N)c12 (single isomer, unassigned) [compound 2512] — recorded Ventricular EC25 = 33.47 µM

Source listed as patent US12448369B2.
